Species: Homo sapiens
Test: Selectivity ratio of Ki for human CXCR2 to Ki for human CX3CR1
RECORDED ENDPOINT: Ratio Ki

Sample records with Ratio Ki:
| SMILES TEXT | Ratio Ki |
| --- | --- |
| CC(C)C[C@H](CO)Nc1nc(SCc2ccccc2)nc2nc(N)sc12 | 11 |
| CCC[C@H](CO)Nc1nc(S[C@@H](C)c2cccc(C#N)c2)nc2[nH]c(=O)sc12 | 65 |
| CC(C)C[C@H](CO)Nc1nc(S[C@@H](C)c2cc(Cl)ccn2)nc2[nH]c(=O)sc12 | 80 |
| C[C@H](CO)Nc1nc(SCc2ccccc2)nc2[nH]c(=O)sc12 | 0.0002 |
| CC(C)C[C@H](CO)Nc1nc(SCc2ccc(C#N)cc2)nc2nc(N)sc12 | 0.2 |

a. CC(C)C[C@H](CO)Nc1nc(SCc2ccccc2C#N)nc2nc(N)sc12
b. CC(C)C[C@H](CO)Nc1nc(S[C@H](C)c2ccccc2)nc2nc(N)sc12
Lookup: Given a and given b , which shows the smaller recorded Ratio Ki? Choose, then provide that item's label.
Found: a
(a: 35, b: 120)

Origin of values: ChEMBL document CHEMBL2346562
